The reported measurements were obtained from patent US9969752B2.

Molecular target: Human HIF-PHD2 (Homo sapiens, UniProt Q9GZT9)
Construct: FLAG-tagged full length PHD2 expressed in and purified from baculovirus-infected Sf9 cells; FLAG; made in house; host or cells: baculovirus-infected Sf9 cells
Sequence (Q9GZT9 whole entry): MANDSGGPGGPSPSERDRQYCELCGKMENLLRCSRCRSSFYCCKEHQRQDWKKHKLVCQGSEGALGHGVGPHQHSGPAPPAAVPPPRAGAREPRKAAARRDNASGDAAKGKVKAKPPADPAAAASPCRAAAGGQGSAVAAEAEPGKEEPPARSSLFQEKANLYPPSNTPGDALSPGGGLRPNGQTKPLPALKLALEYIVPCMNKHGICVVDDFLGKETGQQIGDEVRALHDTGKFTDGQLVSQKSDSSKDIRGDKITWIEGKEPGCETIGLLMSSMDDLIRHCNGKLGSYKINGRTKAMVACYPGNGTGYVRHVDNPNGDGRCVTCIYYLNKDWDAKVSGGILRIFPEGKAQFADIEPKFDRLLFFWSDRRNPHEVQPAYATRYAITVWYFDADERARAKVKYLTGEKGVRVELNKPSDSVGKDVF
Assay: Inhibition of the hydroxylation of a HIF peptide by PHD2 (time resolved fluorescence, 384-well)
Format: biochemical
Details: FLAG-tagged full length PHD2; 0.2 μM 2-oxoglutarate, 0.5 μM HIF-1α peptide; 45 minutes at room temperature; read-out: Human HIF-PHD2 IC50
pIC50: −log10 of the molar value.
readout.type: pIC50

>>> print(df.to_string())
                                   compound                            assayed_system  observed
0  O=C(O)CNC(=O)c1c(O)c2cc(Cl)cc3c2n(c1=O)CC(c1ccc(C(F)(F)F)cc1)O3 (single isomer, unassigned) [Example 74]  Human HIF-PHD2 (Homo sapiens, UniProt Q9GZT9)      8.00
1  CN1c2cccc3c(O)c(C(=O)NCC(=O)O)c(=O)n(c23)CC1c1cncs1 (stereo not drawn) [Example 112]  Human HIF-PHD2 (Homo sapiens, UniProt Q9GZT9)      7.54
2  N#Cc1ccc2c(O)c(C(=O)NCC(=O)O)c(=O)n3c2c1OC(c1ccc(C(F)(F)F)cc1)C3 (single isomer, unassigned) [Example 20]  Human HIF-PHD2 (Homo sapiens, UniProt Q9GZT9)      9.30
3  N#Cc1ccc2c(O)c(C(=O)NCC(=O)O)c(=O)n3c2c1OC(c1ccc(C(F)(F)F)cc1)C3 (single isomer, unassigned) [Example 21]  Human HIF-PHD2 (Homo sapiens, UniProt Q9GZT9)      9.22

[P] Cc1ccc2c(O)c(C(=O)NCC(=O)O)c(=O)n3c2c1OCC3Cc1ccc(C(F)(F)F)cc1 (stereo not drawn) [Example 33]
[Q] CS(=O)(=O)c1ccc2c(O)c(C(=O)NCC(=O)O)c(=O)n3c2c1OCC3 [Example 38]
stdin: Endpoint returns whichever of P and Q has the numerically higher pIC50. Lab log: write the label of the selected item as the result.
stdout: Q
